tested on: Tov112D; assay: Primary qHTS to identify gynecologic anti-cancer compounds using libraries of approved drugs and bioactive compounds (AID 1345084); details: Gynecologic cancer cell panel viability, ATPlite luminescence, 48 h; series mostly up to 57.5 µM; also: % is scaled to controls: 0 for no effect and ±100 for the full control effect; nearly all actives have a fitted effect of over 55% in size
Results filed as inconclusive are left out. Calls of active or inactive are those of the source. Calls follow the shape of the dose curve; as a rule, active = well fitted cell-killing curve with a large enough effect; inconclusive = small, poorly fitted or top-dose-only effect, or effect the other way; inactive = flat fitted curve, though single readings scatter.
parameter-measured: activity change, negative = cytotoxicity

Consider the worked cases shown below.
• CC1(C)CC[C@]2(C(=O)O[C@@H]3O[C@H](CO[C@@H]4O[C@H](CO)[C@@H](O)[C@H](O)[C@H]4O)[C@@H](O)[C@H](O[C@@H]4O[C@H](CO)[C@@H](O)[C@H](O)[C@H]4O)[C@H]3O)[C@H](O)C[C@]3(C)C(=CCC4[C@@]5(C)CC[C@H](O[C@@H]6OC[C@@H](O)[C@H](O)[C@H]6O)[C@@](C)(C(=O)O)C5CC[C@]43C)[C@@H]2C1 (stereo partly specified) = -6.08% [at 11.6 µM] (inactive)
• CC12CC(O)C(O)C=C1c1cc(O)cc(O)c1C(=O)O2 (stereo unspecified) = inactive
• CC1(C)[C@@H]2CC=C(CO[C@@H]3O[C@H](CO[C@@H]4OC[C@H](O)[C@H](O)[C@H]4O)[C@@H](O)[C@H](O)[C@H]3O)[C@H]1C2 = inactive
• C=C(COC(=O)CC(C)C)C1Cc2cc(C(C)=O)ccc2O1 (stereo unspecified) = inactive
• NC(=O)c1ccc(F)c2c1C[C@@H](N(C1CCC1)C1CCC1)CO2 = inactive

Notebook entry, Tov112D assay: activity change, negative = cytotoxicity of `COc1cnc(-c2ccc(Cn3c(CC(C)(C)C(=O)O)c(SC(C)(C)C)c4cc(OC[C@@H]5Cc6ccccc6N5C(C)=O)ccc43)cc2)nc1` = ?
inactive

Request: COc1cc(C2Oc3c(OC)cc(CCCO)cc3C2CO)ccc1O (stereo unspecified)
inactive

What about `COc1ccc(C(=O)CC(=O)O)c2c1C=CC(C)(C)O2` ?
inactive

Proceed to COc1cc(C(CO)CO[C@@H]2O[C@H](CO)[C@@H](O)[C@H](O)[C@H]2O)ccc1O (stereo partly specified)
inactive

What would you report for CCC(C)C(=O)O[C@H]1C[C@](C)(O)[C@]23OC(C)(C)[C@H](C[C@H](OC(=O)c4ccccc4)[C@]2(COC(C)=O)[C@H]1OC(=O)C(C)CC)[C@H]3OC(C)=O (stereo partly specified) ?
inactive

Same thing, different compound: CC1(C)CCC2(C(=O)O)C(O)CC3(C)C(=CCC4C5(C)CCC(OC6OC(CO)C(O)C(O)C6OC6OC(CO)C(O)C(O)C6OC6OCC(O)(CO)C6O)C(C)(C)C5CCC43C)C2C1 (stereo unspecified)
1.07% [at 11.6 µM] (inactive)

Okay, and `C=C1CC/C=C(/CO)C(=O)C[C@@H]2[C@@H]1C[C@@]2(C)COC(C)=O` ?
inactive

Do the same for `CC1=C[C@H](O)[C@H]2C(C)(C)CCC[C@]2(C)[C@@]1(O)CO` please
inactive

Please give the result for CCCC(C(=O)O)c1c(C)nc2ccc(Cl)cc2c1-c1ccccc1 (stereo unspecified) too.
inactive

Note, next up: C[C@H]1CC[C@@]2(OC1)O[C@H]1CC3C4CC[C@H]5C[C@@H](O[C@@H]6O[C@H](CO)[C@H](O[C@@H]7O[C@H](CO)[C@@H](O)[C@H](O[C@@H]8OC[C@@H](O)[C@H](O)[C@H]8O)[C@H]7O[C@@H]7O[C@H](CO)[C@@H](O)[C@H](O)[C@H]7O)[C@H](O)[C@H]6O)[C@H](O)C[C@]5(C)C4=CC(=O)[C@]3(C)[C@H]1[C@@H]2C (stereo partly specified)
2.81% [at 11.6 µM] (inactive)

Do the same for `CCC(CC)CC1(C(=O)Nc2ccccc2SC(=O)C(C)C)CCCCC1` please
inactive

Same read-out for CC(CCO)CCC1C2(C)CCCC(C)(C)C2CC[C@@]1(C)O (stereo partly specified) ?
inactive

Consider next the compound `C[C@]1(C2CCCC2)Cc2cc(OCC(=O)O)c(Cl)c(Cl)c2C1=O` in the same way.
inactive

Entry to check: CC(=C\C(C)O)/C=C(\C)C(=O)CC1CC(CC(N)=O)CC(=O)O1 (stereo unspecified)
inactive

One more compound: `CC[C@H](NC(=O)c1c(O)c(-c2ccccc2)nc2ccccc12)c1ccccc1`
inactive

Moving on to the next compound: CC1OC(O[C@@H]2[C@@H](O)[C@H](OC(=O)[C@]34CCC(C)(C)C[C@H]3C3=CCC5[C@@]6(C)CC[C@H](O[C@@H]7O[C@H](C(=O)O)[C@@H](O)[C@H](O[C@@H]8OC[C@@H](O)[C@H](O)[C@H]8O)[C@H]7O[C@@H]7O[C@H](CO)[C@H](O)[C@H](O)[C@H]7O)[C@@](C)(C=O)C6CC[C@@]5(C)[C@]3(C)C[C@H]4O)O[C@H](C)[C@@H]2OC2OC(C)C(OC3OCC(O)C(O)C3O)C(O)C2O)C(O)C(O)C1O (stereo partly specified)
10.7% [at 6.55 µM] (inactive)

Entry to check: C=C1CC[C@@]2(OC1)O[C@H]1CC3C4CC=C5C[C@@H](O[C@@H]6O[C@@H](C)[C@H](O)[C@@H](O)[C@H]6O)C[C@@H](O[C@@H]6O[C@H](C)[C@H](O)[C@H](O)[C@H]6O[C@@H]6O[C@@H](C)[C@H](O)[C@@H](O)[C@H]6O)[C@]5(C)C4CC[C@]3(C)[C@H]1[C@@H]2C (stereo partly specified)
1.88% [at 11.6 µM] (inactive)

Input COc1ccc(C2COc3cc(O)ccc3C2)c(O)c1OC (stereo unspecified)
inactive

Let us now turn to `Cc1occc(=O)c1O[C@@H]1O[C@H](CO)[C@@H](O)[C@H](O)[C@H]1O`
inactive

Also need CC(=O)OCC1OC(O[C@H]2CC[C@@]3(C)C(CC[C@]4(C)C3CC=C3[C@@H]5CC(C)(C)CC[C@]5(C(=O)O)CC[C@]34C)[C@]2(C)CO)C(O)C(O)C1OC1OC(C)C(O)C(OC2OCC(O)C(O)C2O)C1O (stereo partly specified) , thanks.
0% [at 11.6 µM] (inactive)

And `C=C(C(=O)O)[C@@H]1CC[C@@]2(C)CCC[C@@](C)(O)[C@@H]2C1` ?
inactive

====

tested on: CRL-7250; assay: Cytotoxic Profiling of Annotated Libraries Using Quantitative High-Throughput Screening (AID 1296008); conditions: Five cell lines viability, CellTiter-Glo ATP luminescence, 48-72 h; stronger effect = lower value; also: % is scaled to controls: 0 for no effect and ±100 for the full control effect; nearly all actives have a fitted effect of over 60% in size
Inconclusive results are not listed.
parameter-measured: max response (%)
# unit: % | format: bare number

Write down the reported max response of `CC(=O)O[C@@H]1[C@@H](O)[C@H](C)O[C@@H](O[C@H]2[C@@H]3C=CO[C@@H](O[C@@H]4O[C@H](CO)[C@@H](O)[C@H](O)[C@H]4OC(C)=O)[C@@H]3[C@@]3(CO)O[C@@H]23)[C@@H]1OC(=O)/C=C/c1ccc(O)cc1` , test system: CRL-7250.
0.704

Try `OC[C@H]1O[C@@H](OCCc2ccccc2)[C@H](O)[C@@H](O)[C@@H]1O` next.
-3.7

Now this one: `COc1cc(C(C)=O)ccc1O[C@@H]1O[C@H](CO)[C@@H](O)[C@H](O)[C@H]1O`
-12.2

====

target: Phenylethanolamine N-methyltransferase (Homo sapiens) (UniProt P11086); experiment: Confirmatory Screen for Target Class Profiling of Small Molecule Inhibitors of Methyltransferases (AID 1745852); settings: MTase-Glo luminescence, SAH detection, recombinant enzyme; measured here: PNMT max response; stronger effect = lower value
Sequence (P11086 whole entry, looked up): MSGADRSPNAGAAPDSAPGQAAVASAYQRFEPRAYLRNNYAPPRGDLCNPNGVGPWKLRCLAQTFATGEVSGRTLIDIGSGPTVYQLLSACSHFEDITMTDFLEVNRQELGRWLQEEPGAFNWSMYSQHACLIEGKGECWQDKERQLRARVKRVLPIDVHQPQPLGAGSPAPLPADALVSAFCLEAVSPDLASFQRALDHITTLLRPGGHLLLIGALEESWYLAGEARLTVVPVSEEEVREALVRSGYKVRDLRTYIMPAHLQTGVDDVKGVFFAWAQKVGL
Where a SMILES comes first, the peptide text is derived from it. The star is where a group is joined. AMC = Cc1cc(=O)oc2cc(N*)ccc12; Cbz = O=C(OCc1ccccc1)*
For each record, write down the corresponding activity.
Please reply with the bare figure in % and do not write the unit itself.

What activity value was documented for this compound, Cc1cc(=O)oc2cc(NC(=O)[C@H](CCC(=O)O)NC(=O)[C@H](CC(C)C)NC(=O)[C@H](CC(C)C)NC(=O)OCc3ccccc3)ccc12 (Cbz-Leu-Leu-Glu-{AMC}) ?
-1.44

Same again, this time with COc1c2c(c(C)c3c1C(=O)OC3)OC1(C)CC(O)C34OC(OC)(CC(O)C3(C)C1C2)OC4(C)C (centres undefined)
-5.39

Further, for C=CC(C)(O)CC/C=C(\C)COC1O[C@H](CO)[C@@H](O)[C@H](O)[C@H]1O (some centres undefined) ?
-3.19

Another compound to look at: `N#Cc1cccc(-c2c[nH]c3ncnc(N4CCOCC4)c23)c1`
-72.3

====

tested on: Tov112D; assay: Primary qHTS to identify gynecologic anti-cancer compounds using libraries of approved drugs and bioactive compounds (AID 1345084); conditions: Gynecologic cancer cell panel viability, ATPlite luminescence, 48 h; series mostly up to 57.5 µM; also: % is scaled to controls: 0 for no effect and ±100 for the full control effect; nearly all actives have a fitted effect of over 55% in size
Inconclusive results are not listed. Calls of active or inactive are those of the source. Calls follow the shape of the dose curve; as a rule, active = well fitted cell-killing curve with a large enough effect; inconclusive = small, poorly fitted or top-dose-only effect, or effect the other way; inactive = flat fitted curve, though single readings scatter. Where a SMILES comes first, the peptide text is derived from it. The star is where a group is joined. Cbz = O=C(OCc1ccccc1)*; CH2F = FC*
parameter-measured: activity change, negative = cytotoxicity

* OCC1=C[C@@H](O)[C@@H]2C=CO[C@@H](O[C@@H]3O[C@H](CO)[C@@H](O)[C@H](O)[C@H]3O)[C@H]12 | inactive
* COC(=O)CC[C@H](NC(=O)[C@H](CC(C)C)NC(=O)OCc1ccccc1)C(=O)N[C@@H](Cc1cnc[nH]1)C(=O)N[C@@H](CC(=O)OC)C(=O)CF (Cbz-LE(OMe)HD(OMe)-CH2F) | 6.4% [at 11.6 µM] (inactive)
* C/C=C/C=C/C=C/C(=O)O[C@@H]1[C@@H](OC)C2=C(C(=O)N(C(CCC(=O)O)C(=O)O)C2)[C@@]2(C)CCCC(C)(C)[C@H]12 (stereo partly specified) | inactive
* C=C1CC[C@@H]2[C@](C)(CO)[C@H](O[C@@H]3O[C@H](CO)[C@@H](O)[C@H](O)[C@H]3O)CC[C@@]2(C)[C@@H]1C/C=C1/C(=O)OC[C@H]1O | inactive
* C=C1Cc2c(Cl)cc3[nH]c4c5c3c2[C@@]2(O)[C@@H]1C[C@@H]2C(C)(C)O[C@H]5C1CC[C@@]2(O)[C@@]35O[C@@H]3[C@H]3OC(C)(C)[C@H]3O[C@H]5CC[C@]2(C)[C@@]41C (stereo partly specified) | inactive

Find the recorded activity change, negative = cytotoxicity belonging to CC1=C2CC(=O)C(C)CC/C=C(\C)CC2(O)OC1=O (stereo unspecified) and report it.
inactive

Provenance of the data: PubChem BioAssay (NCATS)
